Here, each record is paired with measured LD50 data.
- experimentDescription: Acute toxicity in male balb/c mouse assessed as lethal dose at ip administration
- Format: organism-based
- appliedConditions: in vivo
quantity: LD50 (mg/kg)

chemicalsmiles=N=C(N)NCCC[C@@H](NC(=O)CNC(=O)[C@H]1CCCN1C(=O)[C@@H](CCCNC(=N)N)NC(=O)[C@@H](Cc1ccccc1)NC(=O)[C@@H](CCCNC(=N)N)NC(=O)[C@@H](Cc1ccccc1)NC(=O)[C@@H](CCCNC(=N)N)NC(=O)[C@H](N)Cc1ccccc1)C(=O)N[C@H](Cc1ccccc1)C(=O)N[C@H](CCCNC(=N)N)C(=O)N[C@H](Cc1ccccc1)C(=O)N[C@H](CCCNC(=N)N)C(=O)N[C@H](Cc1ccccc1)C(N)=O quantity=LD50 datavalue=45.3
chemicalsmiles=N=C(N)NCCC[C@H](NC(=O)CNC(=O)[C@H]1CCCN1C(=O)[C@H](CCCNC(=N)N)NC(=O)[C@H](Cc1ccccc1)NC(=O)[C@H](CCCNC(=N)N)NC(=O)[C@H](Cc1ccccc1)NC(=O)[C@H](CCCNC(=N)N)NC(=O)[C@@H](N)Cc1ccccc1)C(=O)N[C@@H](Cc1ccccc1)C(=O)N[C@@H](CCCNC(=N)N)C(=O)N[C@@H](Cc1ccccc1)C(=O)N[C@@H](CCCNC(=N)N)C(=O)N[C@@H](Cc1ccccc1)C(N)=O quantity=LD50 datavalue=81.3

====

- System: Pseudomonas aeruginosa
- experimentDescription: Antibacterial activity against Pseudomonas aeruginosa ATCC 27853 assessed as inhibition of bacterial growth incubated for 18 hrs by microbroth dilution assay
- Assay type: functional
Where a SMILES comes first, the peptide text is derived from it. [ ]: non-standard residue; d: D form.
quantity: MIC

compound=CC[C@H](C)[C@H](N)C(=O)N[C@@H](CCCNC(=N)N)C(=O)N[C@H](C(=O)N[C@@H](CCCNC(=N)N)C(=O)N1CCC[C@@H]1C(=O)NCC(=O)N[C@@H](CCCNC(=N)N)C(=O)N[C@H](C(=O)N[C@@H](CCCNC(=N)N)C(=O)N[C@H](C(N)=O)[C@@H](C)CC)[C@@H](C)CC)[C@@H](C)CC datavalue="128 µM"
compound="NCCCC[C@H](NC(=O)CNC(=O)[C@H]1CCCN1C(=O)[C@H](CCCCN)NC(=O)[C@H](Cc1c[nH]c2ccccc12)NC(=O)[C@H](CCCCN)NC(=O)[C@H](Cc1c[nH]c2ccccc12)NC(=O)[C@H](CCCCN)NC(=O)[C@@H](N)Cc1c[nH]c2ccccc12)C(=O)N[C@@H](Cc1c[nH]c2ccccc12)C(=O)N[C@@H](CCCCN)C(=O)N[C@@H](Cc1c[nH]c2ccccc12)C(=O)N[C@@H](CCCCN)C(=O)N[C@@H](Cc1c[nH]c2ccccc12)C(N)=O (H-WKWKWK[dP]GKWKWKW-NH2)" datavalue="4 µM"
compound=N=C(N)NCCC[C@H](NC(=O)CNC(=O)[C@H]1CCCN1C(=O)[C@H](CCCNC(=N)N)NC(=O)[C@H](Cc1ccccc1)NC(=O)[C@H](CCCNC(=N)N)NC(=O)[C@H](Cc1ccccc1)NC(=O)[C@H](CCCNC(=N)N)NC(=O)[C@@H](N)Cc1ccccc1)C(=O)N[C@@H](Cc1ccccc1)C(=O)N[C@@H](CCCNC(=N)N)C(=O)N[C@@H](Cc1ccccc1)C(=O)N[C@@H](CCCNC(=N)N)C(=O)N[C@@H](Cc1ccccc1)C(N)=O datavalue="4 µM"
compound=N=C(N)NCCC[C@H](NC(=O)[C@H](Cc1ccccc1)NC(=O)[C@H](CCCNC(=N)N)NC(=O)[C@H](Cc1ccccc1)NC(=O)[C@H](CCCNC(=N)N)NC(=O)CNC(=O)[C@H]1CCCN1C(=O)[C@H](CCCNC(=N)N)NC(=O)[C@H](Cc1ccccc1)NC(=O)[C@H](CCCNC(=N)N)NC(=O)[C@H](Cc1ccccc1)NC(=O)[C@@H](N)CCCNC(=N)N)C(N)=O datavalue="16 µM"
compound=O=C(O)c1cn(C2CC2)c2cc(N3CCNCC3)c(F)cc2c1=O datavalue="2 µM"
compound=N=C(N)NCCC[C@H](NC(=O)CNC(=O)[C@H]1CCCN1C(=O)[C@H](CCCNC(=N)N)NC(=O)[C@H](Cc1ccccc1)NC(=O)[C@H](CCCNC(=N)N)NC(=O)[C@@H](N)Cc1ccccc1)C(=O)N[C@@H](Cc1ccccc1)C(=O)N[C@@H](CCCNC(=N)N)C(=O)N[C@@H](Cc1ccccc1)C(N)=O datavalue="4 µM"
